Assay: self-splicing fitness, log relative to wild type (ln ratio); higher = more splicing; Tetrahymena group I intron in knt gene, E. coli kanamycin selection, DiMSum; sequences stand for … in CUCUCU…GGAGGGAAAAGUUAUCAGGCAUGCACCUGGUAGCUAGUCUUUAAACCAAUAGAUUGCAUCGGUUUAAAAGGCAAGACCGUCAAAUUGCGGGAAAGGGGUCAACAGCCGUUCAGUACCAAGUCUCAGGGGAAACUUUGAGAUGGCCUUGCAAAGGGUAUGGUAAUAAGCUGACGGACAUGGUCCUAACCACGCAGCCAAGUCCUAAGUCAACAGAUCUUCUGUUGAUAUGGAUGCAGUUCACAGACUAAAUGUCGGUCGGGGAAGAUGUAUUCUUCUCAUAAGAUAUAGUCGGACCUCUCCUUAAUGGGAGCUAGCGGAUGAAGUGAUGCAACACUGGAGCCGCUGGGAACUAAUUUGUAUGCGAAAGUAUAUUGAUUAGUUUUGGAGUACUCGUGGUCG;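 note: selection with 25 µg/mL kanamycin versus none on LB agar overnight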
Conditions: 37 °C
Assign condition met whenever self-splicing fitness (ln) does not fall below -1; assign condition not met whenever it does.

Some entries whose results are on file:
inputsequence=UACCAGCAAUAUUACGAGGG group="condition not met"
inputsequence=UGCCAGCAAUAUUACGGCGG group="condition not met"
inputsequence=GCAUAGCAAUAUUACGCGCC group="condition not met"
inputsequence=GUCUAGCAAUAUUACGGUCU group="condition met"
inputsequence=AUUGAGCAAUAUUACGGGAU group="condition not met"
inputsequence=UAGGAGCAAUAUUACGCUCC group="condition not met"
inputsequence=AAGUAGCAAUAUUACGCGGU group="condition not met"
inputsequence=CUAUAGCAAUAUUACGGGUA group="condition not met"
inputsequence=GAGUAGCAAUAUUACGGCAC group="condition met"
inputsequence=CAGCAGCAAUAUUACGGAGG group="condition met"

Hello, I need to know if AUCAAGCAAUAUUACGACAU has measured self-splicing fitness (ln) not below -1. Thanks! condition met

Quick check, self-splicing fitness (ln) >= -1? CCGGAGCAAUAUUACGACGA condition not met
